This collection of values is drawn from patent US20230192860A1.

- TESTED_SYSTEM: T1, hVISTA-ECD 6-His tag (human, UniProt Q9H7M9 33-193)
- T1 construct: also called monovalent hVISTA-ECD; human VISTA
- T1 sequence (Q9H7M9 other isoform, or with tags, fused parts or gaps limits assumed): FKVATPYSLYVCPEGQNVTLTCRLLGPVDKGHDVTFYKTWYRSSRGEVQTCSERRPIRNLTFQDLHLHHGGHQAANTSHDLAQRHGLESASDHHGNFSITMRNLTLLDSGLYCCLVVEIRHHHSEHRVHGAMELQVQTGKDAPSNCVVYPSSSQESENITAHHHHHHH
- METHOD_DESCRIPTION: SPR 37 C, Ab on Protein A, pH 6.0
ASSAY_METRIC: koff (s⁻¹)
Express the result in s⁻¹ but write the number alone.

These solved cases illustrate the format of a correct answer.
INSERT INTO assay_data (binder, unit_tag, observed_value) VALUES
  ('P1-077845 (P1-068744 E31S H50I) (antibody, V domains shown) VH: QVQLVESGGGVVQPGRSLRLSCAASGFTFSSYAMHWVRQAPGKGLEWVAIIWYDGSNKYEADSVKGRFTISRDNSKNTLYLQMNSLRAEDTAVYYCARDSGFYESYYFDEWGQGTLVTVSS VL: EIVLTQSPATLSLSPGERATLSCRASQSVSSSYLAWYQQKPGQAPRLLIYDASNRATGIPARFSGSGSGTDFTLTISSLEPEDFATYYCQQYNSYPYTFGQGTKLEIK', 's⁻¹', 0.002),
  ('P1-077839 (P1-068744 E59Y) (antibody, V domains shown) VH: QVQLVESGGGVVQPGRSLRLSCAASGFTFSEYAMHWVRQAPGKGLEWVAHIWYDGSNKYYADSVKGRFTISRDNSKNTLYLQMNSLRAEDTAVYYCARDSGFYESYYFDEWGQGTLVTVSS VL: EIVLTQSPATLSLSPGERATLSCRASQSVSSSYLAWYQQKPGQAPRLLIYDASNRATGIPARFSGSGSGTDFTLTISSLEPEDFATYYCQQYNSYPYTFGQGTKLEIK', 's⁻¹', 0.054),
  ('P1-077861 (P1-068744 H50I E102Y) (antibody, V domains shown) VH: QVQLVESGGGVVQPGRSLRLSCAASGFTFSEYAMHWVRQAPGKGLEWVAIIWYDGSNKYEADSVKGRFTISRDNSKNTLYLQMNSLRAEDTAVYYCARDSGFYESYYFDYWGQGTLVTVSS VL: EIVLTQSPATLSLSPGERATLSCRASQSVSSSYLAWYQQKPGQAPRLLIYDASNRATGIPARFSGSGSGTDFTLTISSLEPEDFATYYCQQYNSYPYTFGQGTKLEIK', 's⁻¹', 0.0023),
  ('P1-068744 (antibody, human IgG1, kappa, V domains shown, also called P1-068744-7) VH: QVQLVESGGGVVQPGRSLRLSCAASGFTFSEYAMHWVRQAPGKGLEWVAHIWYDGSNKYEADSVKGRFTISRDNSKNTLYLQMNSLRAEDTAVYYCARDSGFYESYYFDEWGQGTLVTVSS VL: EIVLTQSPATLSLSPGERATLSCRASQSVSSSYLAWYQQKPGQAPRLLIYDASNRATGIPARFSGSGSGTDFTLTISSLEPEDFATYYCQQYNSYPYTFGQGTKLEIKR', 's⁻¹', 0.0046);

Form field: reported koff of P1-077847 (P1-068744 H50I E59Y) (antibody, V domains shown) VH: QVQLVESGGGVVQPGRSLRLSCAASGFTFSEYAMHWVRQAPGKGLEWVAIIWYDGSNKYYADSVKGRFTISRDNSKNTLYLQMNSLRAEDTAVYYCARDSGFYESYYFDEWGQGTLVTVSS VL: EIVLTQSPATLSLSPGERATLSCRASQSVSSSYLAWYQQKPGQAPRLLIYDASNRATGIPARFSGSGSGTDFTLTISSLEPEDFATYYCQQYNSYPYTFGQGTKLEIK
0.0032

Reported koff for P1-077843 (P1-068744 E102Y) (antibody, V domains shown) VH: QVQLVESGGGVVQPGRSLRLSCAASGFTFSEYAMHWVRQAPGKGLEWVAHIWYDGSNKYEADSVKGRFTISRDNSKNTLYLQMNSLRAEDTAVYYCARDSGFYESYYFDYWGQGTLVTVSS VL: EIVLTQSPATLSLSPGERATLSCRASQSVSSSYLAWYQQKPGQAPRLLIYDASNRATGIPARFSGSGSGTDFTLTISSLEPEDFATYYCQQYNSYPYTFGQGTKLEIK : what is it?
0.0048

Given the entry P1-077841 (P1-068744 E100S) (antibody, V domains shown) VH: QVQLVESGGGVVQPGRSLRLSCAASGFTFSEYAMHWVRQAPGKGLEWVAHIWYDGSNKYEADSVKGRFTISRDNSKNTLYLQMNSLRAEDTAVYYCARDSGFYSSYYFDEWGQGTLVTVSS VL: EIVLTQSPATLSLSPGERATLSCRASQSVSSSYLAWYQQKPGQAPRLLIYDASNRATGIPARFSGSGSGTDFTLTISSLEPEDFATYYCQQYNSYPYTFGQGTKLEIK , report its measured koff.
0.11

Find the recorded koff belonging to P1-077835 (P1-068744 E31S) (antibody, V domains shown) VH: QVQLVESGGGVVQPGRSLRLSCAASGFTFSSYAMHWVRQAPGKGLEWVAHIWYDGSNKYEADSVKGRFTISRDNSKNTLYLQMNSLRAEDTAVYYCARDSGFYESYYFDEWGQGTLVTVSS VL: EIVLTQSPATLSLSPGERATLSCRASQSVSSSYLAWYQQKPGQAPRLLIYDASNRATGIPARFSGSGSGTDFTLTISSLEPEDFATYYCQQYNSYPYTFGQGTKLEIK and report it.
0.0017

Please give the measured koff for this binder: P1-077849 (P1-068744 E59Y E100S) (antibody, V domains shown) VH: QVQLVESGGGVVQPGRSLRLSCAASGFTFSEYAMHWVRQAPGKGLEWVAHIWYDGSNKYYADSVKGRFTISRDNSKNTLYLQMNSLRAEDTAVYYCARDSGFYSSYYFDEWGQGTLVTVSS VL: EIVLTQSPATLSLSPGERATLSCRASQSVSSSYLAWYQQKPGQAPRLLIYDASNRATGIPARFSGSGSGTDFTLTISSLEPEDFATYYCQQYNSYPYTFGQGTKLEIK
0.11

Which koff value belongs to P1-077851 (P1-068744 E100S E102Y) (antibody, V domains shown) VH: QVQLVESGGGVVQPGRSLRLSCAASGFTFSEYAMHWVRQAPGKGLEWVAHIWYDGSNKYEADSVKGRFTISRDNSKNTLYLQMNSLRAEDTAVYYCARDSGFYSSYYFDYWGQGTLVTVSS VL: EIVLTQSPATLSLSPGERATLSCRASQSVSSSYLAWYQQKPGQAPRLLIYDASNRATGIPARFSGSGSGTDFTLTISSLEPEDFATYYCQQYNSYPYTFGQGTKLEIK ?
0.085
